Data origin, for the record: patent US20090215894A1

Target: Nterm-phos (Homo sapiens, UniProt P34913)
Construct: use of a truncated enzyme from crude extract versus purified full-length human sEH; made in house; host or cells: baculovirus expression system (insect cells)
Assay: Specific activity of Nterm-phos for lipid-phosphates (phosphoric acid formed)
Format: biochemical
Details: substrate hydrolysis, 30° C., average ± SD of three experiments
Quick reference: Spec. Act. of the listed items.

Solved cases (4 shown):
Consider the compound CC(C)=CCC/C(C)=C/CC/C(C)=C/C1C(COP(=O)(O)OP(=O)(O)O)C1(C)CC/C=C(\C)CCC=C(C)C (stereo in doubt) [Pre-squalene diphosphate (PSDP), Pre-squalene diphosphate] and give its measured Spec. Act.. 30 ± 15 nmol/min/mg

Consider the compound CCCCCCCCCCCCC/C=C/[C@@H](O)[C@@H](N)COP(=O)(O)O [Sphingosine-1-phosphate (S1P), Sphingosine-1-phosphate] and give its measured Spec. Act.. 1.1 ± 0.1 nmol/min/mg

Consider the compound CCCCCCCCCCCCCC=CC(O)C(COP(=O)(O)O)NC(=O)CCCCCCC (stereo not drawn) [N-Octyl-ceramide-1-phosphate (OCP), N-Octyl-ceramide-1-phosphate] and give its measured Spec. Act.. <0.3 nmol/min/mg

Consider the compound CCCCCCCC/C=C\CCCCCCCC(=O)OCC(COP(=O)(O)O)OC(=O)CCCCCCC/C=C\CCCCCCCC (stereo not drawn) [1,2-Dioleoyl-glycerol-3-phosphate (DOGP), 1,2-Dioleoyl-glycerol-3-phosphate] and give its measured Spec. Act.. <0.3 nmol/min/mg

Further cases:
Consider the compound CC(C)=CCC/C(C)=C/CC/C(C)=C/C1C(COP(=O)(O)O)C1(C)CC/C=C(\C)CCC=C(C)C (stereo in doubt) [Pre-squalene monophosphate (PSMP), Pre-squalene monophosphate] and give its measured Spec. Act.. 54 ± 22 nmol/min/mg

Consider the compound CC(C)=CCC/C(C)=C/CC/C(C)=C/COP(=O)(O)OP(=O)(O)O [Compound 35, Farnesyl-pyrophosphate] and give its measured Spec. Act.. 32 ± 7 nmol/min/mg

* * *

Molecular target: Human sEH Cterm-EH activity (Homo sapiens)
Construct: use of a truncated enzyme from crude extract versus purified full-length human sEH; made in house; host or cells: baculovirus expression system (insect cells)
Test: Cterm-EH inhibition IC50 with 4-nitrophenyl-trans-2,3-epoxy-3-phenylpropyl carbonate
Format: biochemical
Conditions: read-out: IC50
recorded metric: pIC50
On this scale, pIC50 is minus log10 of a concentration expressed in M (mol/L).

Consider the molecule C[C@H](CCC(=O)NCCS(=O)(=O)O)[C@H]1CC[C@H]2[C@@H]3CC[C@@H]4C[C@H](OS(=O)(=O)O)CC[C@]4(C)[C@H]3CC[C@]12C [Compound 14, Taurolithocholic acid 3-sulfate] and give its measured pIC50. 4.05

* * *

Target: Human sEH Cterm-EH activity (Homo sapiens)
Construct: use of a truncated enzyme from crude extract versus purified full-length human sEH
Test: Cterm-EH dissociation constant with [3H]-trans-1,3-diphenylpropene oxide
Conditions: non-competitive inhibition, n=3
recorded metric: Ki (µM)
Numeric only. Scale: µM

Consider the compound CCCCCCCCC(CCCCCCCCC(=O)O)OS(=O)(=O)O (stereo not shown) [Compound 1, 10-Sulfonooxy-octadecanoic acid] and give its measured Ki. 31

* * *

Molecular target: full length human sEH (Homo sapiens, UniProt P34913)
Construct: use of a truncated enzyme from crude extract versus purified full-length human sEH; made in house; host or cells: baculovirus expression system (insect cells)
Sequence (P34913 1-555): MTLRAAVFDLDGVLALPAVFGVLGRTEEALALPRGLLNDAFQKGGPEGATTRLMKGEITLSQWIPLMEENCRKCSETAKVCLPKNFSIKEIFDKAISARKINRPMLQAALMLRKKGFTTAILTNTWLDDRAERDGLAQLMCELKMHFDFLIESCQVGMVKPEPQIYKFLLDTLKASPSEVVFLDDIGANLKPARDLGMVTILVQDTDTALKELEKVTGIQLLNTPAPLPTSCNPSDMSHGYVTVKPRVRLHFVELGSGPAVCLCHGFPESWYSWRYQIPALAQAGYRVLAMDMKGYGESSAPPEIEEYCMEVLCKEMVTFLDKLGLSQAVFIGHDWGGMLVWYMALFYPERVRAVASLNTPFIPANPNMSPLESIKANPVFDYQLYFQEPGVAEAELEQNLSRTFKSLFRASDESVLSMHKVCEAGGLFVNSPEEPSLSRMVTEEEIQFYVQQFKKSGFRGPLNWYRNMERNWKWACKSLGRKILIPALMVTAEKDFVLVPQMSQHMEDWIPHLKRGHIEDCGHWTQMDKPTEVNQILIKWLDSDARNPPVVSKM
Assay: EH activity inhibition, full length human sEH
Format: biochemical
Think of 70% as a floor: if inhibition at 100 µM stands on it or above, it is True; beneath it, False.

Tell me whether inhibition at 100 µM is at least 70% here: CCCCCCC(C/C=C\CCCCCCCC(=O)O)OS(=O)(=O)O (stereo not drawn) [Compound 4, 12-Sulfonoxy-cis-9-octadecenoic acid] False

Tell me whether inhibition at 100 µM is at least 70% here: CCCCCCCCC(CCCCCCCCC(=O)O)OS(=O)(=O)O (centres unmarked) True

Tell me whether inhibition at 100 µM is at least 70% here: CCCCCCCCC(OS(=O)(=O)O)C(O)CCCCCCCC(=O)O (centres unmarked) False
